subject-of-test: hmGluR1 receptor (Homo sapiens, UniProt Q13255)
Construct: expressed in transfected cells
Sequence (Q13255 19-1194): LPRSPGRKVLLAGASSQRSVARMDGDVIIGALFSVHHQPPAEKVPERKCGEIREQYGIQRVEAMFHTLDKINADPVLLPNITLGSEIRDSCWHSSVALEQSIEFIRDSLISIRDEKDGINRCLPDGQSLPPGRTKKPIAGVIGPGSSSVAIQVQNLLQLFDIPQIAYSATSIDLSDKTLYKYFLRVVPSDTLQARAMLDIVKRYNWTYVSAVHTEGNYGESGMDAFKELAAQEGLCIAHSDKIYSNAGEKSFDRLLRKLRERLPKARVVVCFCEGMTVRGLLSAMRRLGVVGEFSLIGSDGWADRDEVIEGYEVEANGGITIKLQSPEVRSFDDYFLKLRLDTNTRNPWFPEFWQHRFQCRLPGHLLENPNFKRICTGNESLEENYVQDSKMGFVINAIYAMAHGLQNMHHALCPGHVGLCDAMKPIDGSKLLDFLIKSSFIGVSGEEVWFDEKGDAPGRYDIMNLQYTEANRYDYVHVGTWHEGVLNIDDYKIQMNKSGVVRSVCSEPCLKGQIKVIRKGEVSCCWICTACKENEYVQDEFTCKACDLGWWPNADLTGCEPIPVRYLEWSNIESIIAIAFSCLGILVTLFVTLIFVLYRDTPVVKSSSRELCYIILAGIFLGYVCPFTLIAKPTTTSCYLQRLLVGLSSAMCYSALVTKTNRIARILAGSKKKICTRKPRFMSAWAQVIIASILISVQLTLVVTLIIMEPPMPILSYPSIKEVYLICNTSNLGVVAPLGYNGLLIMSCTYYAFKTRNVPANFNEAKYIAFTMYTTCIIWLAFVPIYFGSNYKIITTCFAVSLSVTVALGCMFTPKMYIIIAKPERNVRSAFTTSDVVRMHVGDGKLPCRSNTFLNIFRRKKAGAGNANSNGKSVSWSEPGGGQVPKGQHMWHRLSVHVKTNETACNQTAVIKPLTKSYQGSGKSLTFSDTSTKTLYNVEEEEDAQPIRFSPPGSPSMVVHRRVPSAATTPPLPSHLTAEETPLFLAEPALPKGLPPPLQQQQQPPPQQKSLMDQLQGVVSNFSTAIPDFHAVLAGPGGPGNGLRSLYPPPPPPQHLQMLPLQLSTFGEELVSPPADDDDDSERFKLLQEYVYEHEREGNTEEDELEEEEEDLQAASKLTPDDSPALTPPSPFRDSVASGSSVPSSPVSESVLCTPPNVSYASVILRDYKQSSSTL
method-description: IC50 determination: intracellular calcium mobilization (FLIPR) upon Quisqualate stimulation in CHO cells stably expressing hmGluR1
Assay type: cell-based
condition-info: against Quisqualate 1 μM (EC80), FLIPR calcium mobilization, read-out: IC50 Class
pIC50: −log10 of the molar value.
measurement-name: pIC50

Here is how some compounds turned out for pIC50.
| compound | subject-of-test | pIC50 |
| --- | --- | --- |
| CCc1ncnc2sc3c(=O)n(-c4ccc(OC)cc4)cnc3c12 [compound 201] | hmGluR1 receptor (Homo sapiens, UniProt Q13255) | > 7.30 |
| C=C(C)CNc1ncnc2sc3c(=O)n(-c4ccc5sccc5c4)cnc3c12 [95FE] | hmGluR1 receptor (Homo sapiens, UniProt Q13255) | > 7.30 |
| Cc1nc(N)c2c(n1)sc1c(=O)n(-c3ccccc3)cnc12 [95EX] | hmGluR1 receptor (Homo sapiens, UniProt Q13255) | > 7.30 |
| C=C(C)CNc1ncnc2sc3c(=O)n(-c4ccc(OC)c(F)c4)cnc3c12 [95FB] | hmGluR1 receptor (Homo sapiens, UniProt Q13255) | 6.82 to 7.30 |
| O=c1c2sc3nccc(N4CCCC4)c3c2ncn1-c1ccc(Br)cc1 [28GT] | hmGluR1 receptor (Homo sapiens, UniProt Q13255) | 6.00 to 6.82 |

Identify the measured pIC50 of Cc1ccc(-n2cnc3c(sc4ncc(Br)c(NCCN)c43)c2=O)cc1 [28FM] for hmGluR1 receptor (Homo sapiens, UniProt Q13255).
6.00 to 6.82

Identify the measured pIC50 of CON(C)c1ccnc2sc3c(=O)n(-c4ccc(Cl)cc4)cnc3c12 [28DN] for hmGluR1 receptor (Homo sapiens, UniProt Q13255).
> 7.30

Identify the measured pIC50 of Cc1ccc(-n2cnc3c(sc4nccc(CN(C)C)c43)c2=O)cc1 [169A] for hmGluR1 receptor (Homo sapiens, UniProt Q13255).
< 6.00

Identify the measured pIC50 of CCN(C)c1ccnc2sc3c(=O)n(-c4ccc(OC)cc4C)cnc3c12 [28BV] for hmGluR1 receptor (Homo sapiens, UniProt Q13255).
> 7.30

Identify the measured pIC50 of Cc1ccc(-n2cnc3c(sc4ncnc(Nc5ccccc5)c43)c2=O)cc1 [95FW] for hmGluR1 receptor (Homo sapiens, UniProt Q13255).
< 6.00

Identify the measured pIC50 of Cc1ccc(-n2cnc3c(sc4ncnc(NCc5cccs5)c43)c2=O)cc1 [95FV] for hmGluR1 receptor (Homo sapiens, UniProt Q13255).
6.00 to 6.82

Identify the measured pIC50 of CC(C)Nc1ccnc2sc3c(=O)n(-c4ccc(Br)cc4)cnc3c12 [28HD] for hmGluR1 receptor (Homo sapiens, UniProt Q13255).
6.00 to 6.82

Identify the measured pIC50 of COc1ccc(-n2cnc3c(sc4ncnc(NC5CC5)c43)c2=O)c(C)c1 [95AW] for hmGluR1 receptor (Homo sapiens, UniProt Q13255).
> 7.30

Identify the measured pIC50 of O=c1c2sc3nccc(NC4CC4)c3c2ncn1-c1ccc2occc2c1 [28BI] for hmGluR1 receptor (Homo sapiens, UniProt Q13255).
> 7.30

Identify the measured pIC50 of COc1ccnc2sc3c(=O)n(-c4ccc5c(c4)OCO5)cnc3c12 [28FY] for hmGluR1 receptor (Homo sapiens, UniProt Q13255).
< 6.00

Identify the measured pIC50 of CN(CCO)c1ccnc2sc3c(=O)n(-c4ccc(Br)cc4)cnc3c12 [28HI] for hmGluR1 receptor (Homo sapiens, UniProt Q13255).
> 7.30

Identify the measured pIC50 of Cc1ccc(-n2cnc3c(sc4nccc(NN)c43)c2=O)cc1 [28DK] for hmGluR1 receptor (Homo sapiens, UniProt Q13255).
6.00 to 6.82
